Entry source: the supplement of paper PMC9170038

Test system: MS2 coat protein
Assay: apparent KD of MS2 coat protein, switch ON state; designed switch direction (-1 OFF switch, 1 ON switch): -1; higher = weaker reporter binding
Conditions: FMN input: 0 or 200 uM; Eterna round: R93 (includes R88 designs)
metric: apparent KD of MS2 coat protein
Give your result as the value with the unit written after it.

Your task in this section: give apparent KD of MS2 coat protein for each listed record.
1. CACGUACAUGAGGAUCACCCAUGUUAGGAUAUGCCGGGUAAGAGAAAACUAAAAAUCAGCAGAAGGGACGAAAC [Bilbo Confounded 16 - Jieux - Exclusion 1]
2. AGCAUGUGAGGAUAUGCGGACUCCAAUAAAUCUGGAGUCCAGUAGAAGGCACAUGAGGAUCACCCAUGUGAUAA [Soenaesma]
3. AAAAAACAUGAGGAUCACCCAUGUCAGGAUAUCAUAAAAAAAAAAAAAAAAAAAAAAGUGAGAAGGGACAAAAA [exclusion1-cac1]

Output line:
["36.7 nM", "102 nM", "42.9 nM"]

----------
Can you tell me apparent KD of K4 kissing-loop reporter for the items I'm about to list?
System: K4 kissing-loop RNA reporter
Assay: apparent KD of K4 kissing-loop reporter; higher = weaker reporter binding
Conditions: Eterna round: R107; input ligand: none
Give bare numbers, in nM.

// worked examples, apparent KD of K4 kissing-loop reporter included
record sequence | value units | apparent KD of K4 kissing-loop reporter
UUUUAUUAAUACUUCUAGUGAUGUUAGAUACGAGGACCGGUACGGCCGCCACUCGCUUAUUGGUUUAUAUAUUUUAUAUUCUUUA [JR_SSTryptoA_Sub014] | nM | 342
CCAUUCUUUUACGAUACCAGUCUAAUAUAUUGAAUCAAAACCCUCGCCGAGUGAUGUUCGGACCCUUGGCAGCGUCUGCGAGAGG [xwxxtkmullin] | nM | 602

Then this sequence:
GET /value?item= GCAGUGAUGUUGCGAAUCGGCCAUGAUGCAGAGGAUAUCGUGCCUUCGAGAAGGUUGUAUAGAGGAUACGAUACUAUUAAUGACG [Same State FMN A GF 6] &field=apparent KD of K4 kissing-loop reporter returns 714

----------
Tested on: K4 kissing-loop RNA reporter;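 further: bound reporter read as fluorescence of individual clusters on recovered sequencing chips by microscopy, with normalized cluster intensities fitted with a binding model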
Test: apparent KD of K4 kissing-loop reporter; higher = weaker reporter binding
Conditions: Eterna round: R107; input ligand: tryptophan 2.4 mM
Rule: apparent KD of K4 kissing-loop reporter under 600 nM gives class 0, otherwise class 1.

Here's what some known entries look like.
record sequence | discrete label
GAUAUAGUGAUGUUAUAUACUGAUAGACAACGAGGACCGGUACGGCCGCCACUCGAGAGGGUGAAAAUGAUGAUAAAAUAAUGAU [#02 K4 Tryptophan A Exclusion] | class 0
GCCAGAUAGACGGCCGCCACUUAUAAGUUUCAGUGAUGUUGGAACGGCAAAUGCCGAACACAAUAGAGGACCGGGUCAACUGGCG [Same State Tryptophan B GF 1] | class 1

Now, please, on to the next sequence.
Input line: Is apparent KD of K4 kissing-loop reporter for CCAUCGCUAUUCGAUACCAGUCUACGUAGGAAACUACGUCUGCAAAGGAGUGAUGUUCCAGACCCUUGGCAGCGAAUAGUGAUGG [Theophylline B K4 5] at or above 600 nM?
Output line: class 1

----------
Test system: MS2 coat protein
Experiment: apparent KD of MS2 coat protein; designed switch direction (-1 OFF switch, 1 ON switch): -1; higher = weaker reporter binding
Conditions: input ligand: microRNA oligo, concentration not stated
metric: apparent KD of MS2 coat protein
Give your result as the value with the unit written after it.

record sequence | metric | endpoint result
UUUGUUUGCACAGGAUAUUGUUAUUUUUUUUUUCAAGAAGGGUGUACAUGAGGAUCACCCAUGUUAUGGUUUUAUCUUUUACUU [JR_ExcNG1_Sub011] (Eterna round: R96, puzzle: Exclusion NG 1) | apparent KD of MS2 coat protein | 765 nM
UACAUGAGGAUCACCCAUGUUUUGUCGUGUAUGGUAUUUAUCUAGGAUAUCAAGUUAUUUGUUUAUGAGAAGGAGAAUAUUAAU [JMF's solution 33] (Eterna round: R96, puzzle: Exclusion NG 3) | apparent KD of MS2 coat protein | 26.1 nM
CUAGCUUCGGCUAGUACAAGCUUUUUGCUCGUCUUAUUAACAUGAGGAUCACCCAUGUUAAUGAGACCUCAUGUAUU [Sensor v3 - turn-off variant 2 - 9] (Eterna round: R96, puzzle: Sensor v3, turn-off variant 2) | apparent KD of MS2 coat protein | 12.2 nM

Then this sequence:
GET /value?item= GUCAGCUCGUGAGGAUAUACAUGAGGAUCACCCAUGUGAUCAAUAGCAGCUUCGGCUGCAUUAAUGUAGAAGGCACGAGCUGAU [ENG2/5-A2] (Eterna round: R96, puzzle: Exclusion NG 2) &field=apparent KD of MS2 coat protein returns 166 nM
